target: EGFR exon 20 ASV Ins V769_D770 (Ba/F3 cells) (Homo sapiens, UniProt P00533, INS769ASV); construct: expressed in transfected cells; host or cells: Ba/F3 (murine pro-B cells), retroviral transduction, puromycin selection, IL3-independent pool; test: Inhibitor activity on EGFR-dependent cell growth (CellTiter-Glo, 72 h), Ba/F3 EGFR exon 20 ASV Ins; assay type: cell-based; conditions: read-out: BaF3 ASV IC50
Sequence (P00533 with tags, fused parts or gaps INS769ASV): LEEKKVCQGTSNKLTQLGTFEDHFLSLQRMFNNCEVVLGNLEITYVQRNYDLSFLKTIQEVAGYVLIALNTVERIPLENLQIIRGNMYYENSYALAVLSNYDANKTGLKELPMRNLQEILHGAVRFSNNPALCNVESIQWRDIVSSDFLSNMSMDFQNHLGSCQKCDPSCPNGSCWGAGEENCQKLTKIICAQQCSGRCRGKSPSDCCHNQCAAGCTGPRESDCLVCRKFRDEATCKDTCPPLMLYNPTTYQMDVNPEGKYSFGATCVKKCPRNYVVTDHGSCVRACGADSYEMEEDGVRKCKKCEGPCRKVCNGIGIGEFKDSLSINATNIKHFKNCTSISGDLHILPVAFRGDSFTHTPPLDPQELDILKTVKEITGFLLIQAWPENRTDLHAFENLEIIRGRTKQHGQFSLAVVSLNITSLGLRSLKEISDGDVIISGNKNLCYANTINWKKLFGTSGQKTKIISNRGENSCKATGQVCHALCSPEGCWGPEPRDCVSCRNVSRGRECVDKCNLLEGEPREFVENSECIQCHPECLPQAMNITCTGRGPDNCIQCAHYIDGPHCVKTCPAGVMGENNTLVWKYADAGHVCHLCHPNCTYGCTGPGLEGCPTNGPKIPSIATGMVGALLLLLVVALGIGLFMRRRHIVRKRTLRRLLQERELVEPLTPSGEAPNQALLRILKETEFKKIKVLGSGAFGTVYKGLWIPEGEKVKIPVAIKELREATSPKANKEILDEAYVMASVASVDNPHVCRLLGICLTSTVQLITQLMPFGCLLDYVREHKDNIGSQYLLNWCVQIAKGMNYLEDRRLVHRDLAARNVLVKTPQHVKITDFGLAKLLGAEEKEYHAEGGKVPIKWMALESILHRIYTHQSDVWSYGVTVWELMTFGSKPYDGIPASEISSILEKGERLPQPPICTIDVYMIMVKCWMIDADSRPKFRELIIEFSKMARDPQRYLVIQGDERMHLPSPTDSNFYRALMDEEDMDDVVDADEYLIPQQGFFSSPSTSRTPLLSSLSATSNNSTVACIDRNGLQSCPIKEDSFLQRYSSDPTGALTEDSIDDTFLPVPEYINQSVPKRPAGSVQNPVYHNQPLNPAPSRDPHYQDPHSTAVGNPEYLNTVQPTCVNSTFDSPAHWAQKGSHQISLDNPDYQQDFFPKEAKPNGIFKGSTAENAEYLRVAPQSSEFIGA
pIC50: −log10 of the molar value.
// values below are reported pIC50

# example entries with known answers
INSERT INTO assay_data (compound, value_observed) VALUES
  ('COc1nn(C)cc1Nc1nccc(-c2[nH]c3c(c2Nc2cccc(Cl)c2OC)C(=O)NCC3)n1 [compound 219]', '> 7.00'),
  ('COc1c(F)cccc1Nc1c(-c2ccncc2F)[nH]c2c1C(=O)NC[C@@H]2CC1COCCO1 (stereo in doubt) [Compound 525]', '> 7.00'),
  ('COc1c(Cl)cccc1Nc1c(-c2ccnc(NC3CC3)n2)[nH]c2c1C(=O)NCC2 [compound 112]', '6.00 to 7.00');

Requested read-out: pIC50. Entry: Cc1cccc(F)c1Nc1c(-c2ccnc(N)n2)[nH]c2c1C(=O)NCC2 [compound 198]
< 6.00

Requested read-out: pIC50. Entry: COc1c(Cl)cccc1Nc1c(-c2ccnc3ccc(C4CC4)nc23)[nH]c2c1C(=O)NCC2 [compound 752]
> 7.00

----------
molecular target: EGFR exon 20 FQEA Ins A763_V764 (Ba/F3 cells) (Homo sapiens, UniProt P00533, INS763FQEA); test: Inhibitor activity on EGFR-dependent cell growth (CellTiter-Glo, 72 h), Ba/F3 EGFR exon 20 FQEA Ins; conditions: read-out: BaF3 FQEA IC50
Sequence (P00533 with tags, fused parts or gaps INS763FQEA): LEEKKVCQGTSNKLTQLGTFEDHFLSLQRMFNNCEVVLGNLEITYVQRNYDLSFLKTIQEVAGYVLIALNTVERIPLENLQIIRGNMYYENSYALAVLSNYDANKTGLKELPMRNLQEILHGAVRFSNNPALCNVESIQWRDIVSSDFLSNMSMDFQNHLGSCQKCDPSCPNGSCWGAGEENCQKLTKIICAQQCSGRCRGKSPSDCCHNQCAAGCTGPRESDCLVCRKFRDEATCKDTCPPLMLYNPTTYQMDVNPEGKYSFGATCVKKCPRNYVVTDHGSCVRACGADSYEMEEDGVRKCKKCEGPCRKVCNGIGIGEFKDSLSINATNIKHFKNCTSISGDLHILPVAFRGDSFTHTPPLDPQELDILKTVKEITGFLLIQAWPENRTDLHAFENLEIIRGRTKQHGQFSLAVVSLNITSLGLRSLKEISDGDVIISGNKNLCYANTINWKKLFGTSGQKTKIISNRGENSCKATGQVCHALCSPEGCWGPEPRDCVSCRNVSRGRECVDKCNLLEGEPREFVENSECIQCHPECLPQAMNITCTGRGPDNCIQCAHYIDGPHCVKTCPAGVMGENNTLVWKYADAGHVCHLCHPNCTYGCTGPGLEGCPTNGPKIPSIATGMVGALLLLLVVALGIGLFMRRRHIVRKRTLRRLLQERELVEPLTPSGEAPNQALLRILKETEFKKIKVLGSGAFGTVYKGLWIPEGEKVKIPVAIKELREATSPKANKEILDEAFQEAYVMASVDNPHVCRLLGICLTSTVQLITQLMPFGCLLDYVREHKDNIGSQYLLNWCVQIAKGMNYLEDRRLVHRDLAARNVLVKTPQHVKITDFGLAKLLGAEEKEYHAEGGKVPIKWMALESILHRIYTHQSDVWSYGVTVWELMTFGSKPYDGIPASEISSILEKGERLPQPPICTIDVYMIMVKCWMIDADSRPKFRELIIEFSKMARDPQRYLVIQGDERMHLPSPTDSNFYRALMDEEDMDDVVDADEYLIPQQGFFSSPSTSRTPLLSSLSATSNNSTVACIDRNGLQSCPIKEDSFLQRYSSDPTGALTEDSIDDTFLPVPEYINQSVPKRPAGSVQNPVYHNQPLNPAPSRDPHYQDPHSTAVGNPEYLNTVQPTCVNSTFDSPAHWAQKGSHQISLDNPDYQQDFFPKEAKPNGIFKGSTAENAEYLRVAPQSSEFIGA
pIC50: −log10 of the molar value.
Measured endpoint: pIC50

INSERT INTO results (compound, measured_endpoint, value_observed) VALUES
  ('COc1c(Cl)cccc1Nc1c(-c2ccnc3ccc(OC4CC4)nc23)[nH]c2c1C(=O)NC[C@@H]2C', 'pIC50', '> 7.00');

Requested read-out: pIC50. Entry: `COc1c(Cl)cccc1Nc1c(-c2ccnc3ccc(O[C@@H]4CCOC4)nc23)[nH]c2c1C(=O)NCC2`
> 7.00

Requested read-out: pIC50. Entry: `COc1c(Cl)cccc1Nc1c(-c2ccnc3ccc(OCCN4CCOCC4)nc23)[nH]c2c1C(=O)NCC2`
6.00 to 7.00

Requested read-out: pIC50. Entry: COc1c(Cl)cccc1Nc1c(-c2ccncc2F)[nH]c2c1C(=O)NCC2CC1CCO1 (single isomer, unassigned) [Compound 786]
6.00 to 7.00

Requested read-out: pIC50. Entry: `COc1c(Cl)cccc1Nc1c(-c2ccnc3ccc(OCC4CC(F)(F)C4)nc23)[nH]c2c1C(=O)NCC2`
> 7.00

Requested read-out: pIC50. Entry: `COc1c(Cl)cccc1Nc1c(-c2ccnc3cc(F)cnc23)[nH]c2c1C(=O)NCC2`
> 7.00

Requested read-out: pIC50. Entry: COc1c(Cl)cccc1Nc1c(-c2ccncc2F)[nH]c2c1C(=O)NCC2CC1CCO1 (single isomer, unassigned) [Compound 785]
> 7.00

----------
// values below are reported pIC50
molecular target: EGFR WT (Ba/F3 cells) (Homo sapiens); test: Inhibitor activity on EGFR-dependent cell growth (CellTiter-Glo, 72 h), Ba/F3 EGFR WT; conditions: read-out: BaF3 WT IC50
Sequence (P00533 25-1210): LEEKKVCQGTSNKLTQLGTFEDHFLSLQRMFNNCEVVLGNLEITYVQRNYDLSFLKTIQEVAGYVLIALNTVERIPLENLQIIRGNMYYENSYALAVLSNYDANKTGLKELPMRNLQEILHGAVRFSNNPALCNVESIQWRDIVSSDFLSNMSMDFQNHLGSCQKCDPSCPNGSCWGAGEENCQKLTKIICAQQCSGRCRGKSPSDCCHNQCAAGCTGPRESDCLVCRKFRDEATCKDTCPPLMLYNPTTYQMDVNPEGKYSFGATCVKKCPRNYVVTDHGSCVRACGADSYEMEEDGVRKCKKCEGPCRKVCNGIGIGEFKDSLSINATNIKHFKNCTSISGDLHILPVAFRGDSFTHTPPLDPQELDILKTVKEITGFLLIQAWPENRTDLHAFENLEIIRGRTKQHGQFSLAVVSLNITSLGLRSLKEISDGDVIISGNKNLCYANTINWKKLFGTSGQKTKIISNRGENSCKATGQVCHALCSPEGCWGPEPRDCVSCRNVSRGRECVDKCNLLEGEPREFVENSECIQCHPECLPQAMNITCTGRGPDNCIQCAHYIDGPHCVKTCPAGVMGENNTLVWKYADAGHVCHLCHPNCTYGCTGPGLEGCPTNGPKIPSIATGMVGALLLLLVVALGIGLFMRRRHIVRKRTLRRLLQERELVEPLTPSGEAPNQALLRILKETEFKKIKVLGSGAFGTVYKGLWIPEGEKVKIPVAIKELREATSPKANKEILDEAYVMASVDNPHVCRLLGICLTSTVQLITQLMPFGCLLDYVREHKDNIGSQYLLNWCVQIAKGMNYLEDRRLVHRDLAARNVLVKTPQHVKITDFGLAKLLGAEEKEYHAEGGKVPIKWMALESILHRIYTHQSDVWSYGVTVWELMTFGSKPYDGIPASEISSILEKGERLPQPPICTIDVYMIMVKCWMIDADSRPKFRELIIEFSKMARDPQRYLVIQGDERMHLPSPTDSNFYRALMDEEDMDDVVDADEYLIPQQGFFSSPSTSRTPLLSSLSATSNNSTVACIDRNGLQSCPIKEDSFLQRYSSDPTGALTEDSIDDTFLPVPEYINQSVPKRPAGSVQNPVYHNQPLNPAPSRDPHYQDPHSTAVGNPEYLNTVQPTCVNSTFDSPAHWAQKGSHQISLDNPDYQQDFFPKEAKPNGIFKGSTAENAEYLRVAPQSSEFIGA
pIC50: −log10 of the molar value.

# example entries with known answers
INSERT INTO measurements (molecule, value_observed) VALUES
  ('COc1c(Cl)cccc1Nc1c(-c2ccnc3cnc(OCCN4CCOCC4)nc23)[nH]c2c1C(=O)NCC2', '< 6.00'),
  ('COc1c(Cl)cccc1Nc1c(-c2ccnc3ccc(OC4COC4)nc23)[nH]c2c1C(=O)NCC2', '> 7.00');

Observed pIC50 on EGFR WT (Ba/F3 cells) (Homo sapiens) for `COc1c(Cl)cccc1Nc1c(-c2ccnc(C)n2)[nH]c2c(C[C@@H]3COCCO3)c[nH]c(=O)c12` , please.
6.00 to 7.00

Observed pIC50 on EGFR WT (Ba/F3 cells) (Homo sapiens) for `COc1c(Cl)cccc1Nc1c(-c2ccnc(NC3CC3)n2)[nH]c2c1C(=O)NCC2` , please.
< 6.00

Observed pIC50 on EGFR WT (Ba/F3 cells) (Homo sapiens) for `COc1c(Cl)cccc1Nc1c(-c2ccnc3ccc(O[C@H]4CCCOC4)nc23)[nH]c2c1C(=O)NCC2` , please.
> 7.00

Observed pIC50 on EGFR WT (Ba/F3 cells) (Homo sapiens) for `COc1cc2nccc(-c3[nH]c4c(c3Nc3cccc(Cl)c3OC)C(=O)NCC4)c2nc1OC` , please.
> 7.00

Observed pIC50 on EGFR WT (Ba/F3 cells) (Homo sapiens) for `COc1ccc2nccc(-c3[nH]c4c(c3Nc3cccc(Cl)c3OC)C(=O)NC[C@H]4CCF)c2n1` , please.
> 7.00

Observed pIC50 on EGFR WT (Ba/F3 cells) (Homo sapiens) for `C=CC(=O)N1CCC(Oc2nc3c(-c4[nH]c5c(c4Nc4cccc(F)c4OC)C(=O)NCC5)ccnc3cc2OC)CC1` , please.
> 7.00

Observed pIC50 on EGFR WT (Ba/F3 cells) (Homo sapiens) for COCC[C@@H]1CNC(=O)c2c(Nc3cccc(Cl)c3OC)c(-c3ccncn3)n(C)c21 (single isomer, unassigned) , please.
< 6.00

Observed pIC50 on EGFR WT (Ba/F3 cells) (Homo sapiens) for COc1c(Cl)cccc1Nc1c(-c2ccncc2F)[nH]c2c1C(=O)NCC2C[C@H]1CO[C@H](CN(C)C)CO1 (single isomer, unassigned) [Compound 564] , please.
< 6.00

Observed pIC50 on EGFR WT (Ba/F3 cells) (Homo sapiens) for `C=CC(=O)N1CCC2(CC1)CNC(=O)c1c2[nH]c(-c2ccnc(N)n2)c1Nc1cccc(F)c1OC` , please.
6.00 to 7.00

Observed pIC50 on EGFR WT (Ba/F3 cells) (Homo sapiens) for `COc1c(F)cccc1Nc1c(-c2ccnc3cnc(C(F)(F)F)nc23)[nH]c2c1C(=O)NCC2` , please.
< 6.00

Observed pIC50 on EGFR WT (Ba/F3 cells) (Homo sapiens) for `CCO[C@H](C)c1ccc2nccc(-c3[nH]c4c(c3Nc3cccc(Cl)c3OC)C(=O)NCC4)c2n1` , please.
> 7.00

Observed pIC50 on EGFR WT (Ba/F3 cells) (Homo sapiens) for `COc1ncc2nccc(-c3[nH]c4c(c3Nc3cccc(F)c3OC)C(=O)NCC43CC3)c2n1` , please.
6.00 to 7.00
